study system: BVDV NS5B-His recombinant protein (Bovine viral diarrhea virus 1, strain …, UniProt P19711)
Sequence (P19711 whole entry, looked up): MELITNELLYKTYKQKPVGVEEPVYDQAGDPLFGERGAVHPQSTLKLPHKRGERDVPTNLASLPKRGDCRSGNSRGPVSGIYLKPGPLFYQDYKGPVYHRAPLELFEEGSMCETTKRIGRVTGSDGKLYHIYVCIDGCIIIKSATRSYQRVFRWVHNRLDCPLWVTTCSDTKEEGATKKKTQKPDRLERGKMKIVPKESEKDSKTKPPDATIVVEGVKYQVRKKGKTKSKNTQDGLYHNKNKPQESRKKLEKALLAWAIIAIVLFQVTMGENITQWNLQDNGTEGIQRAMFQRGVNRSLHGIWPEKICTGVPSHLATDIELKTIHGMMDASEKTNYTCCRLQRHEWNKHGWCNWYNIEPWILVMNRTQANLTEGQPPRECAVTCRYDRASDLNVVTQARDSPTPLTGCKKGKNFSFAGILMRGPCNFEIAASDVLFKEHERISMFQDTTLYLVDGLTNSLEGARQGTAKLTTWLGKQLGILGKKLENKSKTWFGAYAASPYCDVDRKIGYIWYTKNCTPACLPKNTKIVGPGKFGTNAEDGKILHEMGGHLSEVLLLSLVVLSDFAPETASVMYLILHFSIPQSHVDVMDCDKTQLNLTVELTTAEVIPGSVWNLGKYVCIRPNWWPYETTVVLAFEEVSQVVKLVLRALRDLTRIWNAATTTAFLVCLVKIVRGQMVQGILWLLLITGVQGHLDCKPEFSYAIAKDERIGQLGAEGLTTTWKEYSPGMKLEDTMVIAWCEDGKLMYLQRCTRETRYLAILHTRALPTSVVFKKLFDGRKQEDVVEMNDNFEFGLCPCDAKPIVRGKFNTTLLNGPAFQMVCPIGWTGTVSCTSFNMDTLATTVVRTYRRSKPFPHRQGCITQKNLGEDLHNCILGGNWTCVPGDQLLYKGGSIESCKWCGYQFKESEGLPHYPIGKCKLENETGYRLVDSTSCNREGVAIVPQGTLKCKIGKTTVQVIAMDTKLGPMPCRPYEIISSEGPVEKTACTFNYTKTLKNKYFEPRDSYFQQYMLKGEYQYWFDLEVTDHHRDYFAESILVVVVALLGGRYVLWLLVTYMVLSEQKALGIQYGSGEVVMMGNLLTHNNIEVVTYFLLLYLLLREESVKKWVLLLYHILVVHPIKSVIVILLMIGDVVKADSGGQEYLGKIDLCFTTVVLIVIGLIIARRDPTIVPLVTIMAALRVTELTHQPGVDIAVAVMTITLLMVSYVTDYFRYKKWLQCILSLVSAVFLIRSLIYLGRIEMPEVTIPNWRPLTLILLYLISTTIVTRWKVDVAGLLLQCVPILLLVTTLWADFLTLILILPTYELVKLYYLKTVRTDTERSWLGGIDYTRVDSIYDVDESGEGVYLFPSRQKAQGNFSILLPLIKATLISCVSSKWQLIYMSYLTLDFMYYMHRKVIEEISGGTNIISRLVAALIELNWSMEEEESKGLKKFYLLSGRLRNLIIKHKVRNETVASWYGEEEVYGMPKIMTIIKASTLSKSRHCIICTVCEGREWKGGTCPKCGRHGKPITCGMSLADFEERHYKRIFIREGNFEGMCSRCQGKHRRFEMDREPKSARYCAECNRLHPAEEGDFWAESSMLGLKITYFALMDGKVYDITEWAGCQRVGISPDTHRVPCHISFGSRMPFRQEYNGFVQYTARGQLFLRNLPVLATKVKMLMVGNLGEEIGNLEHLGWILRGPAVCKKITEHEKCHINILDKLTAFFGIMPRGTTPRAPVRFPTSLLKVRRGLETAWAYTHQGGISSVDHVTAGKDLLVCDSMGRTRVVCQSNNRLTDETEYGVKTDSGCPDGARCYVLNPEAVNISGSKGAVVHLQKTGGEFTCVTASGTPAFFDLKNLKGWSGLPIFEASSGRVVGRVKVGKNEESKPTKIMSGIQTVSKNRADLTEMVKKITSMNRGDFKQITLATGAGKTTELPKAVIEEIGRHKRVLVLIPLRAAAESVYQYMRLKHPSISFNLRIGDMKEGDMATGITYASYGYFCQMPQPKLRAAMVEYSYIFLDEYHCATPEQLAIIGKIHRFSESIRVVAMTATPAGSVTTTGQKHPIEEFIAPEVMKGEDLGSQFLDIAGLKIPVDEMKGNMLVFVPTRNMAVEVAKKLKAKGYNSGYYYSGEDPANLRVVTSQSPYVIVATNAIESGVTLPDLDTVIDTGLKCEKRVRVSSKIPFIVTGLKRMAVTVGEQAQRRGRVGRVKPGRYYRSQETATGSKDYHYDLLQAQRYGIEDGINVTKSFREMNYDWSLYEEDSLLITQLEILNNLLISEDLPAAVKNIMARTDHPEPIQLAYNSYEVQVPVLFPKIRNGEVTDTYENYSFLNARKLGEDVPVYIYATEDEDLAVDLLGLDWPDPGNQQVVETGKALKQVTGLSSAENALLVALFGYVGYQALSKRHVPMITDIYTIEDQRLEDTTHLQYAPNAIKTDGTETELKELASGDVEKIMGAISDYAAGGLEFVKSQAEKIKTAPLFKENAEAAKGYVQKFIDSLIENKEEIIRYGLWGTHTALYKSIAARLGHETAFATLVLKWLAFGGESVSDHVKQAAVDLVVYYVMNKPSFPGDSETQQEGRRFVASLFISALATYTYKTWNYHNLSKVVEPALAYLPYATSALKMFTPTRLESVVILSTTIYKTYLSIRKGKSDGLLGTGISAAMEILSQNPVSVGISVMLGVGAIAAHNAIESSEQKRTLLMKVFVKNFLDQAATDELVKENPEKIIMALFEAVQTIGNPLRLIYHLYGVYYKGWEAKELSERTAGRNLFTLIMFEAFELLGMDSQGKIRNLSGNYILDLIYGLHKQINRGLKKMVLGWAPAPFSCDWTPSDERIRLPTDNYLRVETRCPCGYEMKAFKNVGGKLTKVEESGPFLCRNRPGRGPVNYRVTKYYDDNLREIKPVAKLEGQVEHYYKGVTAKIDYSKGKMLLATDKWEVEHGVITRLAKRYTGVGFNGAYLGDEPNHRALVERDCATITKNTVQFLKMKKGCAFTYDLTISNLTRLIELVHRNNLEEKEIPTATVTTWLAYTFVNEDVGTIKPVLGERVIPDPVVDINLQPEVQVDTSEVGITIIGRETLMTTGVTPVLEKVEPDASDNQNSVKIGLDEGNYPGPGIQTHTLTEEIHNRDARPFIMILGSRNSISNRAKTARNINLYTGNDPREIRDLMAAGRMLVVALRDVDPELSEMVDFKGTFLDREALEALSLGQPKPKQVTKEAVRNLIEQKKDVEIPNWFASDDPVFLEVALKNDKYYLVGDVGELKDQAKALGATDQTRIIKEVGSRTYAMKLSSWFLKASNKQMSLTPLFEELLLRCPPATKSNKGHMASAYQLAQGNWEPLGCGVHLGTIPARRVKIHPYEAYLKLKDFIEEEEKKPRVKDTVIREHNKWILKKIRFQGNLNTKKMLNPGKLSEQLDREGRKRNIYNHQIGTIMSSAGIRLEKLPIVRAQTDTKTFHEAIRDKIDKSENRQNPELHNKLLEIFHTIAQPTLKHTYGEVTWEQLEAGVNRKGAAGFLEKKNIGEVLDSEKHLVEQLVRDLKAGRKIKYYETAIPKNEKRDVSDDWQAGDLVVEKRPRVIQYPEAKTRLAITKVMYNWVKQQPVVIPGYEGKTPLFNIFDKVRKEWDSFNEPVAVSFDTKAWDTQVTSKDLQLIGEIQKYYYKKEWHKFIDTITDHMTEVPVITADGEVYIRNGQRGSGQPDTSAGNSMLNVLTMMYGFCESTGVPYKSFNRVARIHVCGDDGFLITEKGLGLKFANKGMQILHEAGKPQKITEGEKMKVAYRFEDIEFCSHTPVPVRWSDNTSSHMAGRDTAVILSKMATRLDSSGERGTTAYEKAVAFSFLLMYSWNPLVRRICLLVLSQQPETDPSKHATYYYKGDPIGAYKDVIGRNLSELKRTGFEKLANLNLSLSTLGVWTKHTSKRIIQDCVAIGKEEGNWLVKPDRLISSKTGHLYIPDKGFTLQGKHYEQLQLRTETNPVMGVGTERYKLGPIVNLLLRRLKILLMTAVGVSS
method description: ELISA
result type: binding result

[
  {
    "binder": "Nb100 (VHH) VHH: QVQLQESGGGSVQSGGSLRLSCAASGYRRYCMAWFRQAPGKEREGVASIRSDGSTRYADSVKGRFSISQDNAENTLYLQMNSLKPEDTAMYYCAADSSAGCYSVHNSLLARSTYNYWGQGTQVTVSS",
    "result type": "binding result",
    "val": "binds"
  },
  {
    "binder": "Nb20 (VHH) VHH: QVQLQESGGGSVQSGGSLRLSCRAVDGSGACMGWFRQAPGKEREGVAVIARDGSTNYAHSVRGRFTISQDNAKNTLYLQMNGLKPDDTAMYYCAAGPRFRSCSTSPSFYTSWGQGTQVTVSS",
    "result type": "binding result",
    "val": "binds"
  },
  {
    "binder": "Nb54 (VHH) VHH: QVQLQESGGGSVQSGGSLRLSCAASTYTYNNYCMGWFRQAPGKEREGVASIERFGHTIFADSVKGRFTISRDNTKNTLYLQMNSLKPEDTAMYYCATERPSAYCSDSFTFNYWGQGTQVTVSS",
    "result type": "binding result",
    "val": "binds"
  }
]
